Molecular target: T1, CRBN, Q96SW2;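 also: pooled lentiviral library of zinc finger degron-EGFP fusions in mCherry-positive Jurkat cells, FACS-sorted after compound exposure, with degron abundance counted by next-generation sequencing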
T1 chain: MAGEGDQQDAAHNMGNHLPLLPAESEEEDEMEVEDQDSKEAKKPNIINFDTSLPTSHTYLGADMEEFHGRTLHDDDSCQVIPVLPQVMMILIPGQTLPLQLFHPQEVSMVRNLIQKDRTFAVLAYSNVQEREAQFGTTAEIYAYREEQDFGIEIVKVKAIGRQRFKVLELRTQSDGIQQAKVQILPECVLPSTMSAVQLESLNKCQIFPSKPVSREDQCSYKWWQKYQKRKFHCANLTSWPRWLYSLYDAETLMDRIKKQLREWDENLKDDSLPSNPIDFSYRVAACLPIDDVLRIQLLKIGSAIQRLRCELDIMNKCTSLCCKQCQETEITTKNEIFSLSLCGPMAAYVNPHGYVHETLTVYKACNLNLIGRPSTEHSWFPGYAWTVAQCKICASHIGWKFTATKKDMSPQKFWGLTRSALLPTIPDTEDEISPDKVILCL
Assay: log2 fold change of degron read counts, EGFP-low vs EGFP+ sorted cells (limma voom), compound-induced degradation; higher = more compound-induced degradation of the degron-EGFP fusion; degrons are variants of IKZF1/3 zinc finger 2; compound dose not given here
Conditions: Jurkat; 18 h; compound: thalidomide
The full ranking holds about 8,300 sequences; the median of “log2 fold change of degron read counts, EGFP-low vs EGFP+ sorted cells (limma voom), compound-induced degradation” is about -1.1, and the highest 2% start at about 3.2. The sample as a whole holds a higher share of the highest values than the screen did.
measurement.label: log2 fold change of degron read counts

[[record]]
polymer_sequence = "FWCPICGHKFTQKGNLLRHIKL [46F_47W_49P_50I_52G_53H_54K_55F_67L_, Q9UKT9]"
measurement_label = "log2 fold change of degron read counts"
val = -0.717

[[record]]
polymer_sequence = "FWCNQCGAKFTQKGNLLRHIKL [46F_47W_49N_50Q_52G_53A_54K_55F_67L_, Q9UKT9]"
measurement_label = "log2 fold change of degron read counts"
val = -1.53

[[record]]
polymer_sequence = "FKCDICGAGFTQKGNLLRHIKL [46F_47K_49D_50I_52G_53A_54G_55F_67L_, Q9UKT9]"
measurement_label = "log2 fold change of degron read counts"
val = -1.43

[[record]]
polymer_sequence = "LECPICGFSCTQKGNLLRHIKL [46L_47E_49P_50I_52G_53F_54S_55C_67L_, Q9UKT9]"
measurement_label = "log2 fold change of degron read counts"
val = 3.62

[[record]]
polymer_sequence = "FSCDQCGAEFTQKGNLLRHIKL [46F_47S_49D_50Q_52G_53A_54E_55F_67L_, Q9UKT9]"
measurement_label = "log2 fold change of degron read counts"
val = -2.94

[[record]]
polymer_sequence = "FACPQCGAFFTQKGNLLRHIKL [46F_47A_49P_50Q_52G_53A_54F_55F_67L_, Q9UKT9]"
measurement_label = "log2 fold change of degron read counts"
val = -1.87

[[record]]
polymer_sequence = "FVCDICGALFTQKGNLLRHIKL [46F_47V_49D_50I_52G_53A_54L_55F_67L_, Q9UKT9]"
measurement_label = "log2 fold change of degron read counts"
val = -0.433

